Assay: CD spectroscopy, secondary structure content (DichroWeb)
Format: physicochemical
Conditions: CD in SDS micelles (20 mM), peptide 50 μM, 25 °C, DichroWeb
Experimental: The secondary structures of the linear peptide 9 and its stapled analogues 12, 17, and 24–26 were explored by circular dichroism (CD). CD spectroscopy studies were performed in water, and SDS or DPC micelles (20 mM) were used as mimics of the bacterial or mammalian membranes, respectively.[60] […] All spectra were measured in the 260–190 nm spectral range, 1 nm bandwidth, 4 accumulations, and 100 nm/min scanning speed.[60] […]
Bridge positions count the residues as written; N and C are the ends. Square brackets hold non-standard residues; d marks the D form. Peptide text beside a SMILES is read from it.

| compound | units.of.measure | β-strand-1 (regular β-strand) |
| --- | --- | --- |
| CC[C@H](C)[C@H](NC(=O)[C@H](CCCNC(=N)N)NC(=O)[C@]1(C)CCCC=CCCC[C@](C)(NC(=O)[C@H](Cc2ccccc2)NC(=O)[C@H](Cc2c[nH]c3ccccc23)NC(=O)[C@@H]2CCCN2C(=O)[C@@H](NC(=O)[C@@H](N)Cc2ccccc2)C(C)C)C(=O)N[C@@H](CCCCN)C(=O)N[C@@H](Cc2ccccc2)C(=O)N[C@H](CC(C)C)C(=O)N1)C(=O)N[C@@H](CC(C)C)C(N)=O | % | 0 |
| CC[C@H](C)[C@H](NC(=O)[C@H](CCCNC(=N)N)NC(=O)[C@@H]1CCCCNC(=O)CC[C@H](NC(=O)[C@H](Cc2ccccc2)NC(=O)[C@H](Cc2c[nH]c3ccccc23)NC(=O)[C@@H]2CCCN2C(=O)[C@@H](NC(=O)[C@@H](N)Cc2ccccc2)C(C)C)C(=O)N[C@@H](CCCCN)C(=O)N[C@@H](Cc2ccccc2)C(=O)N[C@H](CC(C)C)C(=O)N1)C(=O)N[C@@H](CC(C)C)C(N)=O [compound 24] (H-FVPWFEKF[dL]KRIL-NH2; lactam 6-10) | % | 11 |
| CC[C@H](C)[C@H](NC(=O)[C@H](CCCNC(=N)N)NC(=O)[C@@H]1CCC(=O)NCCCC[C@H](NC(=O)[C@H](Cc2ccccc2)NC(=O)[C@H](Cc2c[nH]c3ccccc23)NC(=O)[C@@H]2CCCN2C(=O)[C@@H](NC(=O)[C@@H](N)Cc2ccccc2)C(C)C)C(=O)N[C@@H](CCCCN)C(=O)N[C@@H](Cc2ccccc2)C(=O)N[C@H](CC(C)C)C(=O)N1)C(=O)N[C@@H](CC(C)C)C(N)=O [compound 12] (H-FVPWFKKF[dL]ERIL-NH2; lactam 6-10) | % | 0 |
| CC[C@H](C)[C@H](NC(=O)[C@H](CCCNC(=N)N)NC(=O)[C@@H]1CCCCn2cc(nn2)C[C@H](NC(=O)[C@H](Cc2ccccc2)NC(=O)[C@H](Cc2c[nH]c3ccccc23)NC(=O)[C@@H]2CCCN2C(=O)[C@@H](NC(=O)[C@@H](N)Cc2ccccc2)C(C)C)C(=O)N[C@@H](CCCCN)C(=O)N[C@@H](Cc2ccccc2)C(=O)NC(CC(C)C)C(=O)N1)C(=O)N[C@@H](CC(C)C)C(N)=O (stereo in doubt) | % | 13 |
